- subject.of.test: T1, huCD46-His (human, UniProt P15529 35-343)
- T1 construct: extracellular domain; Immobilised by amine coupling on the SPR chip; It may be the same protein as the ELISA antigen; also called Human CD46-His; human CD46; not shown: His tag
- T1 sequence (looked up): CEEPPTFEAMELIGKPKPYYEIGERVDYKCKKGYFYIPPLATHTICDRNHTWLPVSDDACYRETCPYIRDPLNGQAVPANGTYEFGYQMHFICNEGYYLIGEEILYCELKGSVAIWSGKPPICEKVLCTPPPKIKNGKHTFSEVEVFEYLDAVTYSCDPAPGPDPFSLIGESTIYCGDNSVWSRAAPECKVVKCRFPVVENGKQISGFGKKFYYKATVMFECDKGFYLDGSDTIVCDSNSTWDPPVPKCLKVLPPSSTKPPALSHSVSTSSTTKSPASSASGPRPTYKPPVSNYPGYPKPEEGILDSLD
- measurement.description: SPR, huCD46-His immobilised, antibody as analyte, pH 6.5
Documented Kd across a set of binders
Give the number; nM is assumed, so skip it.

Solved entries:
binder="BAP133-2-03-03-SL (antibody, V domains shown, the killing assays used the ADC form; also called BAP133-02-03-03-SL; CPE hit BAP133-2-03-03-SL) VH: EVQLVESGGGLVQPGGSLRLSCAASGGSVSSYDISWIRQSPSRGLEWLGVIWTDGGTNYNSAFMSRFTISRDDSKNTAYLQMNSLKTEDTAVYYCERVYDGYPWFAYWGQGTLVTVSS VL: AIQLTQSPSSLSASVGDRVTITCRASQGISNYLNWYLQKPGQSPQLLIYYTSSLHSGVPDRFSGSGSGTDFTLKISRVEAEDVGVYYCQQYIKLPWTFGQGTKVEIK" readout_units=nM reported_result=1.29
binder="Benchmark (BM) BA-133-00-01 (antibody, V domains shown, the killing assays used the ADC form; Conjugation site and payload are not described; also called BM (bench mark)) VH: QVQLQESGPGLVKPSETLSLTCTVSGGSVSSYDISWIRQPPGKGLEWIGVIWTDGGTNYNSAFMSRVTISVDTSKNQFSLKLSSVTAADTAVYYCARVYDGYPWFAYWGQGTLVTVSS VL: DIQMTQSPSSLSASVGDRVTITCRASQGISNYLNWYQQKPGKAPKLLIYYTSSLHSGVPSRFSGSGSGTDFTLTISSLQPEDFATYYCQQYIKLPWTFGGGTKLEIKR" readout_units=nM reported_result=2.15

Returns the measured Kd for the input binder. Input: BAP133-2-02-12 (antibody, V domains shown, also called BAP133-02-02-12; CPE hit BAP133-2-02-12) VH: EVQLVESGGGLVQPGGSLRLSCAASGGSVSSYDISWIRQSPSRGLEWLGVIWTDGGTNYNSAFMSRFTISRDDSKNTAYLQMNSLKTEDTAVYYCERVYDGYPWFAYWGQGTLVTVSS VL: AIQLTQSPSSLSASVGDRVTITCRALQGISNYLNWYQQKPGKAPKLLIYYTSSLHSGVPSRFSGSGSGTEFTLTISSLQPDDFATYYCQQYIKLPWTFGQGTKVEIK
5.78
